Give measured AC50 for each item. Keep answers brief.
Measured On: Muscarinic acetylcholine receptor M2 (Homo sapiens, UniProt P08172)
Sequence (P08172 whole entry): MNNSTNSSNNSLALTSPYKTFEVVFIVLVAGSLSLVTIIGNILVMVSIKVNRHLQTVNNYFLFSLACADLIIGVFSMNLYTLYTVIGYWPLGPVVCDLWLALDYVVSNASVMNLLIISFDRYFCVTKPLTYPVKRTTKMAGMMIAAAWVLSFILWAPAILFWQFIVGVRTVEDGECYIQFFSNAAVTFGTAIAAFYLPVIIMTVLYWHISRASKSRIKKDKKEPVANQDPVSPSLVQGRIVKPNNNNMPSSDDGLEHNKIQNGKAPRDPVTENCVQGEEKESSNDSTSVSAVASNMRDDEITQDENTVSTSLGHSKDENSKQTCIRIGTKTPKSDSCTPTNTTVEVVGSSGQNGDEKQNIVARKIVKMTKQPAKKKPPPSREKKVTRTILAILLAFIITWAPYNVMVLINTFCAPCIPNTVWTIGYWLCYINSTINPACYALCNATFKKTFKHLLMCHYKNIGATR
Format: functional, cell-based

Observe how each entry below is paired with its result.
CCCCCCC(C)(C)c1cc(O)c2c(c1)OC(C)(C)C1CCC(=O)CC21 (centres undefined) [NABILONE] | > 30 µM
NC(=O)C[S+]([O-])C(c1ccccc1)c1ccccc1 (centres undefined) [MODAFINIL] | > 10 µM
O=C(C[S+]([O-])C(c1ccccc1)c1ccccc1)NO (centres undefined) | > 30 µM
CC1=CC(=O)c2ccccc2C1=O [MENADIONE] | > 10 µM
CCc1ccc(CCOc2ccc(CC3SC(=O)NC3=O)cc2)nc1 (centres undefined) [PIOGLITAZONE] | > 10 µM

Could you report AC50 for every entry in the following list?
1. COc1ccc2cccc(CCNC(C)=O)c2c1 [AGOMELATINE]
2. O=C(O)CCn1c2c(c3ccccc31)C[C@H](NS(=O)(=O)c1ccc(F)cc1)CC2 [RAMATROBAN]

Output:
["> 30 µM", "> 10 µM"]

Could you report AC50 for every entry in the following list?
1. CC(C)(N)Cc1ccc(Cl)cc1 [CHLORPHENTERMINE]
2. CC(C)Cc1ccc(CC(=O)O)cc1 [IBUFENAC]
3. Cc1cc2c(OCC(CNC(C)(C)C)OC(=O)c3ccccc3)cccc2[nH]1 (centres undefined) [BOPINDOLOL]
4. CCCCCN(C)CCC(O)(P(=O)(O)O)P(=O)(O)O [IBANDRONIC ACID]
5. COCC1=C(C(=O)OC(C)OC(=O)OC(C)C)N2C(=O)[C@@H](NC(=O)/C(=N\OC)c3csc(N)n3)[C@H]2SC1 (some centres undefined) [CEFPODOXIME PROXETIL]

Output:
> 10 µM
> 30 µM
> 30 µM
> 30 µM
> 30 µM

Could you report AC50 for every entry in the following list?
1. CC(C)NNC(=O)c1ccncc1 [IPRONIAZID]
2. C[C@H]1O[C@H](O[C@H]2[C@H](O)[C@@H](O)[C@@H](O[C@H]3[C@H](O)[C@@H](O)C(O)O[C@@H]3CO)O[C@@H]2CO)[C@H](O)[C@@H](O)[C@@H]1N[C@H]1C=C(CO)[C@@H](O)[C@H](O)[C@H]1O (some centres undefined) [ACARBOSE]
3. COc1ccc2c(c1)C(=O)N(CCc1ccc(S(=O)(=O)NC(=O)NC3CCCCC3)cc1)C(=O)C2(C)C [GLIQUIDONE]
4. CN1C(=O)N(C)C2C1N(C)C(=O)N2C (centres undefined) [MEBICAR]
5. CN(C/C=C/c1ccccc1)Cc1cccc2ccccc12 [NAFTIFINE]

Output:
1: > 30 µM; 2: > 10 µM; 3: > 30 µM; 4: > 30 µM; 5: > 10 µM

Could you report AC50 for every entry in the following list?
1. NC[C@H]1O[C@H](O[C@H]2[C@H](O)[C@@H](O[C@H]3O[C@H](CO)[C@@H](O)[C@H](N)[C@H]3O)[C@H](N)C[C@@H]2N)[C@H](O)[C@@H](O)[C@@H]1O [KANAMYCIN]
2. NC(CO)C(=O)NNCc1ccc(O)c(O)c1O (centres undefined) [BENSERAZIDE]
3. CC(C)(Oc1ccc(C2CC2(Cl)Cl)cc1)C(=O)O (centres undefined) [CIPROFIBRATE]
4. CCCCCOC(=O)Nc1nc(=O)n([C@@H]2O[C@H](C)[C@@H](O)[C@H]2O)cc1F [CAPECITABINE]

Output:
1. > 10 µM
2. > 10 µM
3. > 30 µM
4. > 30 µM

Could you report AC50 for every entry in the following list?
1. CN(C)C(=O)OC1N=C(c2ccccc2)c2cc(Cl)ccc2N(C)C1=O (centres undefined) [CAMAZEPAM]
2. O=C(O)c1cccc(-c2noc(-c3ccccc3F)n2)c1

Output:
["> 10 µM", "> 10 µM"]

Could you report AC50 for every entry in the following list?
1. O=C(NC[C@H]1CN(c2ccc(N3CCOCC3=O)cc2)C(=O)O1)c1ccc(Cl)s1 [RIVAROXABAN]
2. CCCCOc1cc(C(=O)NCCN(CC)CC)c2ccccc2n1 [DIBUCAINE]
3. CN1C(=O)CC(=O)N(c2ccccc2)c2cc(Cl)ccc21 [CLOBAZAM]
4. CO/N=C(\C(=O)N[C@@H]1C(=O)N2C(C(=O)[O-])=C(C[N+]3(C)CCCC3)CS[C@H]12)c1csc(N)n1
5. CC(=O)O[C@@]12CO[C@@H]1C[C@H](O)[C@@]1(C)C(=O)[C@H](O)C3=C(C)[C@@H](OC(=O)[C@H](O)[C@@H](NC(=O)OC(C)(C)C)c4ccccc4)C[C@@](O)([C@@H](OC(=O)c4ccccc4)[C@H]21)C3(C)C [DOCETAXEL ANHYDROUS]
6. Cc1ccc(C(=O)c2cc(O)c(O)c([N+](=O)[O-])c2)cc1 [TOLCAPONE]

Output:
["> 30 µM", "> 10 µM", "> 10 µM", "> 300 µM", "> 30 µM", "> 10 µM"]

Could you report AC50 for every entry in the following list?
1. CN(C)[C@@H]1C(O)=C(C(N)=O)C(=O)[C@@]2(O)C(O)=C3C(=O)c4c(O)ccc(Cl)c4[C@@H](O)[C@H]3C[C@@H]12 [DEMECLOCYCLINE]
2. COC(=O)C1=C(C)NC(C)=C(C(=O)OCC(C)C)C1c1ccccc1[N+](=O)[O-] (centres undefined) [NISOLDIPINE]
3. Cc1c(Cl)cccc1Nc1ccccc1C(=O)O [TOLFENAMIC ACID]
4. CN1CCN(C(=O)OC2c3nccnc3C(=O)N2c2ccc(Cl)cn2)CC1 (centres undefined) [ZOPICLONE]
5. Cc1ccc(-c2nc3ccc(C)cn3c2CC(=O)N(C)C)cc1 [ZOLPIDEM]

Output:
["> 10 µM", "> 10 µM", "> 30 µM", "> 10 µM", "> 30 µM"]
